Test target: human TRPM8 (Homo sapiens)
Assay remarks: In vitro TRPM8 assay: intracellular calcium levels, Ca2+ sensitive fluorescent dye (FLIPR), agonist Icilin or Cooling Agent 10
Assay type: cell-based
Set-up: expressed in transfected cells
Experimental conditions: HEK-293 cells stably expressing human TRPM8; agonist Icilin at EC80; read-out: Ca2+ (IC50 μM) Icilin
Value type: IC50 (µM)

Item O=C(c1sc(-c2cccc(F)c2)nc1O)N1CCCCCO1 has what recorded IC50?
0.143

Item O=C(c1sc(-c2cccc(F)c2)nc1O)n1ccnc1 has what recorded IC50?
1.25

Item O=C(c1sc(-c2ccccc2O)nc1O)N1CCCOC1 has what recorded IC50?
0.256

Item O=C(c1sc(-c2cccc(F)c2)nc1O)n1ccnn1 has what recorded IC50?
0.082

Item O=C(c1sc(-c2ccccc2O)nc1O)N1CCCO1 has what recorded IC50?
0.012

(A) O=C(c1sc(-c2ccccc2O)nc1O)C1CCCO1 (stereo not drawn)
(B) O=C(c1ccco1)c1sc(-c2cccc(F)c2)nc1O
(C) CC1CCN(C(=O)c2sc(-c3cccc(F)c3)nc2O)O1 (stereo not drawn)
(D) O=C(c1sc(-c2cccc(F)c2)nc1O)N1CCCOC1
(E) O=C(c1cccnc1)c1sc(-c2cccc(F)c2)nc1O
Would you mind ranking these molecules by ascending IC50? Enter labels, ranked according to the request.
C, D, A, E, B

###

Test target: human TRPM8 (Homo sapiens, UniProt Q7Z2W7)
Sequence (Q7Z2W7 whole entry): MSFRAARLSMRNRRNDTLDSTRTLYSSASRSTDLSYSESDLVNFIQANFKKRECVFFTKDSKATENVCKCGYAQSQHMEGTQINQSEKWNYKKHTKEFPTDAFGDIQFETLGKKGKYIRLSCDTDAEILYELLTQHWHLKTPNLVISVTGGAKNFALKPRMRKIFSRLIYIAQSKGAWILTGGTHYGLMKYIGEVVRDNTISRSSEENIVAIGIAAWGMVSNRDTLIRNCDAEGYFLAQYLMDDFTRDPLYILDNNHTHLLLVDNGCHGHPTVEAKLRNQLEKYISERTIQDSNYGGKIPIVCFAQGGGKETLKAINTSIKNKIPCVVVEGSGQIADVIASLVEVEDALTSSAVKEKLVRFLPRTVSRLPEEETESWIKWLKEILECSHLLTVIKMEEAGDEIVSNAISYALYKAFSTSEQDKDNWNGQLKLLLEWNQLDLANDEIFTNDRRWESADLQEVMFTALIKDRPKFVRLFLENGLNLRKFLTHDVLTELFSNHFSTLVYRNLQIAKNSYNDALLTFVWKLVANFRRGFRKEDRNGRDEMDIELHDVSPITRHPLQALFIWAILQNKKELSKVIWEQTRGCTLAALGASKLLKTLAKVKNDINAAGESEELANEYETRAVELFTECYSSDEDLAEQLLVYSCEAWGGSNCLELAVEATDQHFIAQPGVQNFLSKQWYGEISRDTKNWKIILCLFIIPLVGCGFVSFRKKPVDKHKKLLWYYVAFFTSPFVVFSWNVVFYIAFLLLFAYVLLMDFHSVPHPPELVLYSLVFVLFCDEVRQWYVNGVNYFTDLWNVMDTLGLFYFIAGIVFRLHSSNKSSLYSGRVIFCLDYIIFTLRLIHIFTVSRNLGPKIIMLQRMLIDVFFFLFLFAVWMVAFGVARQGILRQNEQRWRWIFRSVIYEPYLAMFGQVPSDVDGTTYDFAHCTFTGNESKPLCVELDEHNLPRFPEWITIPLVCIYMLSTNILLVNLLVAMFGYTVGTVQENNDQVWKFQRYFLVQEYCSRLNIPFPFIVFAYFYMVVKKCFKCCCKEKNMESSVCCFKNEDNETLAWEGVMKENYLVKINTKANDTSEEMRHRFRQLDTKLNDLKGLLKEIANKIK
Assay remarks: In vitro TRPM8 assay: intracellular calcium levels, Ca2+ sensitive fluorescent dye (FLIPR), agonist Icilin or Cooling Agent 10
Format: cell-based
Set-up: expressed in transfected cells
Experimental conditions: HEK-293 cells stably expressing human TRPM8; agonist Cooling Agent 10 at EC80; read-out: Ca2+ (IC50 μM) Cool 10
Procedure: The TRPM8 antagonistic activity of all 26 compounds was determined by measuring changes in intracellular calcium levels using a Ca^+2 sensitive fluorescent dye. The experiments were performed using HEK-293 cells stably expressing the human TRPM8. […] The compounds or vehicle were added and the kinetic response was monitored by a fluorimetric imaging plate ([…]; Molecular Devices, Sunnyvale, Calif., USA) over a period of five minutes (300 seconds). […]
Value type: IC50 (µM)

(P) O=C(c1sc(-c2cccc(F)c2)nc1O)N1CC2CCCC2O1 (stereo not shown)
(Q) O=C(c1ccc[nH]1)c1sc(-c2cccc(F)c2)nc1O
Of P and Q , which shows the smaller IC50 value? Lab log: write the label of the selected item as the result.
P
(P: 0.084 µM, Q: 0.482 µM)

(A) O=C(c1ccccn1)c1sc(-c2cccc(F)c2)nc1O
(B) O=C(c1sc(-c2cccc(F)c2)nc1O)N1CCCCC1
(C) O=C(c1cccs1)c1sc(-c2cccc(F)c2)nc1O
(D) O=C(c1sc(-c2cccc(F)c2)nc1O)N1CCCCO1
(E) CC1CCN(C(=O)c2sc(-c3cccc(F)c3)nc2O)O1 (stereo not shown)
Would you mind ranking these compounds by ascending IC50? Enter labels, ranked according to the request.
E, D, A, C, B
(E: 0.091 µM, D: 0.167 µM, A: 0.523 µM, C: 0.96 µM, B: 1.51 µM)

(I) O=C(c1ccncc1)c1sc(-c2cccc(F)c2)nc1O
(II) O=C(c1sc(-c2ccccc2O)nc1O)N1CCCOC1
Of I and II , which shows the smaller IC50 value? Lab log: write the label of the selected item as the result.
II

###

Test target: human TRPM8 (Homo sapiens, UniProt Q7Z2W7)
Assay remarks: In vitro TRPM8 assay: intracellular calcium levels, Ca2+ sensitive fluorescent dye (FLIPR), agonist Icilin or Cooling Agent 10
Format: cell-based
Parameters: expressed in transfected cells
Experimental conditions: HEK-293 cells stably expressing human TRPM8; agonist Icilin at EC80; read-out: Ca2+ (IC50 μM) Icilin
Value type: IC50 (µM)

Item Cn1nnnc1C(=O)c1sc(-c2cccc(F)c2)nc1O [Example 32] has what recorded IC50?
0.101

Item O=C(c1sc(-c2cccc(F)c2)nc1O)N1CC2(CC2)CO1 [Example 28] has what recorded IC50?
0.143

(a) O=C(c1sc(-c2cccc(F)c2)nc1O)C1CCCO1 (centres unmarked) [Example 5]
(b) Cn1cccc1C(=O)c1sc(-c2cccc(F)c2)nc1O [Example 18]
Of a and b , which shows the smaller IC50 value? Lab log: write the label of the selected item as the result.
a
(a: 0.362 µM, b: 1.09 µM)

(P) O=C(c1ccc[nH]1)c1sc(-c2cccc(F)c2)nc1O [Example 17]
(Q) O=C(c1sc(-c2ccccc2O)nc1O)N1CCOCC1 [Example 13]
Sort P and Q by IC50 descending and give the first. Lab log: write the label of the selected item as the result.
Q
(Q: 1.22 µM, P: 0.564 µM)

###

Assay remarks: Metabolic stability in rat microsomes, Phase I assay
Assay type: in vitro ADME
Experimental conditions: pH 7.4; rat liver microsomes 0.5 mg/ml, compound 1 μM, NADP cofactors mixture, 37° C.; read-out: Metabolic Stability (t1/2, min) Phase1
Value type: half-life at 1 μM (min)

Item O=C(c1sc(-c2ccccc2O)nc1O)N1CCOC1 has what recorded half-life at 1 μM?
64

Item O=C(c1sc(-c2cccc(F)c2)nc1O)N1CC2(CC2)CO1 has what recorded half-life at 1 μM?
73

Item O=C(c1sc(-c2cccc(F)c2)nc1O)C1CCCN1 (centres unmarked) has what recorded half-life at 1 μM?
65

(I) O=C(c1ccccn1)c1sc(-c2cccc(F)c2)nc1O
(II) O=C(c1sc(-c2cccc(F)c2)nc1O)n1cccc1
Of I and II , which shows the smaller half-life at 1 μM value? Lab log: write the label of the selected item as the result.
II

###

Assay remarks: Metabolic stability in rat microsomes, Phase II assay
Format: in vitro ADME
Experimental conditions: pH 7.4; rat liver microsomes 0.5 mg/mL, Alamethicin activated, UDPGA, compound 1 μM, 37° C.; read-out: Metabolic Stability (t1/2, min) Phase2
Procedure: Rat liver microsomes (0.5 mg/mL final conc.) were incubated in ice for 15 min in 50 mM potassium phosphate buffer pH 7.4, 3 mM MgCl2 and activated with Alamethicin 50 μg/mg microsomal protein. Samples were transferred at 37° C. and compounds 1, 2, 8 and 9, dissolved in DMSO, were added in duplicate at the final concentration of 1 μM. After 5 min, reaction is started by adding 25 μl of UDPGA (16.15 mg/ml in 0.2% Sodium Bicarbonate). […] After centrifugation the supernatants were analysed by LC-MS/MS. […]
Value type: half-life at 1 μM (min)

Item O=C(c1cccnc1)c1sc(-c2cccc(F)c2)nc1O has what recorded half-life at 1 μM?
51

Item O=C(c1sc(-c2cccc(F)c2)nc1O)N1CCCCO1 has what recorded half-life at 1 μM?
51

Item O=C(c1sc(-c2cccc(F)c2)nc1O)N1CCCC1 has what recorded half-life at 1 μM?
51

###

Test target: human TRPM8 (Homo sapiens, UniProt Q7Z2W7)
Assay remarks: In vitro cold stimulation assay
Value type: IC50 (nM)

Item O=C(c1sc(-c2cccc(F)c2)nc1O)n1ccnc1 has what recorded IC50?
972

Item O=C(c1ccccn1)c1sc(-c2cccc(F)c2)nc1O has what recorded IC50?
478

Item O=C(c1sc(-c2cccc(F)c2)nc1O)N1CC2(CC2)CO1 has what recorded IC50?
54

(P) CC1CCN(C(=O)c2sc(-c3cccc(F)c3)nc2O)O1 (centres unmarked)
(Q) O=C(c1ccc[nH]1)c1sc(-c2cccc(F)c2)nc1O
Of P and Q , which shows the smaller IC50 value? Lab log: write the label of the selected item as the result.
P

(A) O=C(c1sc(-c2cccc(F)c2)nc1O)n1cccc1
(B) O=C(c1sc(-c2cccc(F)c2)nc1O)N1CCCOC1
Sort A and B by IC50 descending and give the first. Lab log: write the label of the selected item as the result.
A
(A: 657 nM, B: 102 nM)

###

Test target: human TRPM8 (Homo sapiens, UniProt Q7Z2W7)
Assay remarks: In vitro TRPM8 assay: intracellular calcium levels, Ca2+ sensitive fluorescent dye (FLIPR), agonist Icilin or Cooling Agent 10
Assay type: cell-based
Design: expressed in transfected cells
Experimental conditions: HEK-293 cells stably expressing human TRPM8; agonist Cooling Agent 10 at EC80; read-out: Ca2+ (IC50 μM) Cool 10
IC50 listing for selected molecules.
Please state the figure in µM; there is no need to write the unit.

Here's what some known entries look like.
Item O=C(c1ccco1)c1sc(-c2cccc(F)c2)nc1O has what recorded IC50?
1.17

Item O=C(c1sc(-c2cccc(F)c2)nc1O)N1CC2(CC2)CO1 has what recorded IC50?
0.086

Item CN1CCCC1C(=O)c1sc(-c2cccc(F)c2)nc1O (stereo not shown) has what recorded IC50?
1.34

Shifting focus to the molecule that follows.
Item O=C(c1sc(-c2cccc(F)c2)nc1O)C1CCCN1 (stereo not shown) has what recorded IC50?
1.56
